// provenance: patent US20190127480A1

assay-system: T1, soluble heterodimeric hCD3ε/δ.mFc protein (human)
T1 construct: also called soluble human CD3; soluble heterodimeric CD3 protein
T1 chain 1: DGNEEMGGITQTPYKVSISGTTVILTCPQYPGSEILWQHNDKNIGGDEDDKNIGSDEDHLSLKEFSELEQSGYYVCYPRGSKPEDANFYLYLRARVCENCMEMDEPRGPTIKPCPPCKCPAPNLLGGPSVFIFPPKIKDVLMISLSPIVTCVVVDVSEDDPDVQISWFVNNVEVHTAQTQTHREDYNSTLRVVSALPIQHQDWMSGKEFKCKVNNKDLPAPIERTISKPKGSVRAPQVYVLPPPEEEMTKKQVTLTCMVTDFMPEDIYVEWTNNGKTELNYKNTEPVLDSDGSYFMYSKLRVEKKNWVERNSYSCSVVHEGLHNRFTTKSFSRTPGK
T1 chain 2: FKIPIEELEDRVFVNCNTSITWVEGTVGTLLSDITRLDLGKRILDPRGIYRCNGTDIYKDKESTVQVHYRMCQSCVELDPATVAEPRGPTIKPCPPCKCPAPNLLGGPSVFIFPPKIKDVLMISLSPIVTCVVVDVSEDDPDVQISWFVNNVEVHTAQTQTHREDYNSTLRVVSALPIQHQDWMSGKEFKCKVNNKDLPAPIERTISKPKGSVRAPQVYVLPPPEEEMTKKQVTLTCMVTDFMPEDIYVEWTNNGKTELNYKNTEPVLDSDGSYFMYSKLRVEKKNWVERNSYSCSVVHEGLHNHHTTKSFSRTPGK
method-notes: SPR MASS-1, 37 C, antigen-capture format
quantity-measured: binding result

BSPSMA/CD3-1800 (bispecific antibody, IgG4, V domains shown, modified (chimeric) IgG4 Fc domain; also called PSMA-VH-11810 x CD3-VH-G18) VH 1: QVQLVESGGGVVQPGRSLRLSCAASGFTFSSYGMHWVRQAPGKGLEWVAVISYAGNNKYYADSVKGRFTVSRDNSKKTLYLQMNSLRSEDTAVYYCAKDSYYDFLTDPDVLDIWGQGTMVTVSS VH 2: EVQLVESGGGLVQPGRSLRLSCAASGFTFDDYSMHWVRQAPGKGLEWVSGISWNSGSIGYADSVKGRFTISRDNAKNSLYLQMNSLRAEDTALYYCAKDGSGYGKFYYYGLDVWGQGTTVTVSS VL: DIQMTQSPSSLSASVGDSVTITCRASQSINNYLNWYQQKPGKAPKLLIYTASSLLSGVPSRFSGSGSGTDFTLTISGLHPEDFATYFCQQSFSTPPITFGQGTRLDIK = no binding
BSPSMA/CD3-004 (bispecific antibody, IgG4, V domains shown, modified (chimeric) IgG4 Fc domain; also called PSMA-VH-11810 x CD3-VH-G5) VH 1: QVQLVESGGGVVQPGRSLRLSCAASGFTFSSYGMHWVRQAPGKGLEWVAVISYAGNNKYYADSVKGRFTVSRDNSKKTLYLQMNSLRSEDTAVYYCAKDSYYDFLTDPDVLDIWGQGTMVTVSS VH 2: EVQLVESGGGLVQPGRSLRLSCAASGFTFDDYSMHWVRQAPGKGLEWVSGISWNSGSIGYADSVKGRFTISRDNAKNSLYLQMNSLRAEDTALYYCAKDGSGYGKFYYYGMDVWGQGTTVTVSS VL: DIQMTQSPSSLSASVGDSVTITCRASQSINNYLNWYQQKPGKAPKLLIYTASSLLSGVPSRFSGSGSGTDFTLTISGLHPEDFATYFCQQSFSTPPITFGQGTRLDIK = no binding
BSPSMA/CD3-200 (bispecific antibody, IgG4, V domains shown, modified (chimeric) IgG4 Fc domain; also called PSMA-VH-11810 x CD3-VH-G2) VH 1: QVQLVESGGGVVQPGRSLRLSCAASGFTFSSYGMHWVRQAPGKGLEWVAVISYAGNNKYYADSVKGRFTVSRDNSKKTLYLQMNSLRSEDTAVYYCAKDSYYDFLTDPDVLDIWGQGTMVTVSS VH 2: EVQLVESGGGLVQPGRSLRLSCAASGFTFDDYAMHWVRQAPGKGLEWVSGISWNSGSIGYADSVKGRFTISRDNAKNSLYLQMNSLRAEDTALYYCAKDGSGYGYFYYYGMDVWGQGTTVTVSS VL: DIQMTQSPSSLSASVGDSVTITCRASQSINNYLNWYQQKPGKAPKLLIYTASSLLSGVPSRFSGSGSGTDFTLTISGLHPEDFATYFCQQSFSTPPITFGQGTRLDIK = no binding
